B1: library; a variant is named by its letters at N, in order (parent)
chain: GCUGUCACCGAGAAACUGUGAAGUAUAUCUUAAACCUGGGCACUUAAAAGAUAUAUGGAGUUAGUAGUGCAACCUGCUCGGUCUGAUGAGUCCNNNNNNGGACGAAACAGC

Variants of: B1
Test: normalized RNA/DNA level without ligand (relative to sTRSVctl = 100) (log10 (% of sTRSVctl)); HEK293T; ligand: cyclic di-GMP (c-di-GMP-II aptamer); higher = less ribozyme self-cleavage, higher mRNA level
Conditions: reporter: mCherry (pCS4076), ligand present: no
quantity kind: normalized RNA/DNA level without ligand (log10)
Form field (numeric): enter value without unit.

Qu. Item under review: UUUGGG . Reported normalized RNA/DNA level without ligand (log10)?
Ans. 1.74

Qu. Item under review: AGAAAA . Reported normalized RNA/DNA level without ligand (log10)?
Ans. 1.42

Qu. Item under review: CUUUCG . Reported normalized RNA/DNA level without ligand (log10)?
Ans. 1.8

Qu. Item under review: GGGUAA . Reported normalized RNA/DNA level without ligand (log10)?
Ans. 1.61

Qu. Item under review: GCCUCA . Reported normalized RNA/DNA level without ligand (log10)?
Ans. 1.74

Qu. Item under review: CAGAAC . Reported normalized RNA/DNA level without ligand (log10)?
Ans. 1.54

Qu. Item under review: UUACAG . Reported normalized RNA/DNA level without ligand (log10)?
Ans. 1.71

Qu. Item under review: GUAGUC . Reported normalized RNA/DNA level without ligand (log10)?
Ans. 1.37

Qu. Item under review: GUAAUC . Reported normalized RNA/DNA level without ligand (log10)?
Ans. 1.35

Qu. Item under review: AAGCAG . Reported normalized RNA/DNA level without ligand (log10)?
Ans. 1.79

Qu. Item under review: AAAAUU . Reported normalized RNA/DNA level without ligand (log10)?
Ans. 1.62

Qu. Item under review: AGACGU . Reported normalized RNA/DNA level without ligand (log10)?
Ans. 1.57

Qu. Item under review: GCUGCA . Reported normalized RNA/DNA level without ligand (log10)?
Ans. 1.77

Qu. Item under review: AGCUGU . Reported normalized RNA/DNA level without ligand (log10)?
Ans. 1.67

Qu. Item under review: GCUGCG . Reported normalized RNA/DNA level without ligand (log10)?
Ans. 1.79

Qu. Item under review: GAGAGC . Reported normalized RNA/DNA level without ligand (log10)?
Ans. 1.71

Qu. Item under review: GGCGGC . Reported normalized RNA/DNA level without ligand (log10)?
Ans. 1.71

Qu. Item under review: ACCAAC . Reported normalized RNA/DNA level without ligand (log10)?
Ans. 1.6

Qu. Item under review: CAGACG . Reported normalized RNA/DNA level without ligand (log10)?
Ans. 1.68

Qu. Item under review: CUCAUU . Reported normalized RNA/DNA level without ligand (log10)?
Ans. 1.79

Qu. Item under review: CCGGUU . Reported normalized RNA/DNA level without ligand (log10)?
Ans. 1.59

Qu. Item under review: GGGAUA . Reported normalized RNA/DNA level without ligand (log10)?
Ans. 1.54

Qu. Item under review: AAUAAU . Reported normalized RNA/DNA level without ligand (log10)?
Ans. 1.63

Qu. Item under review: ACGCUC . Reported normalized RNA/DNA level without ligand (log10)?
Ans. 1.67

Qu. Item under review: CGGCUG . Reported normalized RNA/DNA level without ligand (log10)?
Ans. 1.74

Qu. Item under review: ACACCC . Reported normalized RNA/DNA level without ligand (log10)?
Ans. 1.73

Qu. Item under review: UCUUGC . Reported normalized RNA/DNA level without ligand (log10)?
Ans. 1.75

Qu. Item under review: GUUCAG . Reported normalized RNA/DNA level without ligand (log10)?
Ans. 1.77

Qu. Item under review: CGACGG . Reported normalized RNA/DNA level without ligand (log10)?
Ans. 1.67

Qu. Item under review: AAGUGA . Reported normalized RNA/DNA level without ligand (log10)?
Ans. 1.38

Qu. Item under review: UUUCAG . Reported normalized RNA/DNA level without ligand (log10)?
Ans. 1.75

Qu. Item under review: UACGUG . Reported normalized RNA/DNA level without ligand (log10)?
Ans. 1.69

Qu. Item under review: UUGGUU . Reported normalized RNA/DNA level without ligand (log10)?
Ans. 1.7

Qu. Item under review: UGUUCU . Reported normalized RNA/DNA level without ligand (log10)?
Ans. 1.75

Qu. Item under review: GCUUAU . Reported normalized RNA/DNA level without ligand (log10)?
Ans. 1.6

Qu. Item under review: GACAUC . Reported normalized RNA/DNA level without ligand (log10)?
Ans. 1.67

Qu. Item under review: CCAAGA . Reported normalized RNA/DNA level without ligand (log10)?
Ans. 1.47

Qu. Item under review: CGCGAC . Reported normalized RNA/DNA level without ligand (log10)?
Ans. 1.62

Qu. Item under review: UCUCCU . Reported normalized RNA/DNA level without ligand (log10)?
Ans. 1.77

Qu. Item under review: AGACCC . Reported normalized RNA/DNA level without ligand (log10)?
Ans. 1.79

Qu. Item under review: AAUCAA . Reported normalized RNA/DNA level without ligand (log10)?
Ans. 1.51

Qu. Item under review: GACGAC . Reported normalized RNA/DNA level without ligand (log10)?
Ans. 1.61

Qu. Item under review: AGGCUC . Reported normalized RNA/DNA level without ligand (log10)?
Ans. 1.78

Qu. Item under review: GUGAGC . Reported normalized RNA/DNA level without ligand (log10)?
Ans. 1.51

Qu. Item under review: AUUAUG . Reported normalized RNA/DNA level without ligand (log10)?
Ans. 1.58

Qu. Item under review: AACGGU . Reported normalized RNA/DNA level without ligand (log10)?
Ans. 1.52
